Origin of the recorded values: paper PMC5454392

Reported binding score values for the following binders.
- systemName: T1, CaBdf1 BD2 (GST-tagged, wild-type) (Candida albicans (strain SC5314 / ATCC …, UniProt Q5A4W8))
- T1 chain: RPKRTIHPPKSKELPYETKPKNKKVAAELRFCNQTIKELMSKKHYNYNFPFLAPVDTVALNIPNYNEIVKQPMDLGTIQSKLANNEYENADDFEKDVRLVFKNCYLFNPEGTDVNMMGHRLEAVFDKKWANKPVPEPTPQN
- assayNotes: histone peptide array (Active Motif MODified), 1 uM GST-tagged bromodomain, anti-GST detection, normalized mean intensity
Square brackets hold non-standard residues; d marks the D form. Ends that are not written are not given here. pS = N[C@@H](COP(=O)(O)O)C(=O)O; Me2a = not defined here

[
  {
    "binder": "SGRGKGGKGLGKGGAKRHR (S G R G K G G K G L G K G G A Kac R H R)",
    "binding score": 0.00296
  },
  {
    "binder": "AR(Me2s)TK(Me3)QTAR(Me2a)K(Ac)STGGKAPRKQ (reading uncertain)",
    "binding score": 0.0037
  },
  {
    "binder": "ARTKQTARKSTGGKAPRKQ (A Rme2s T Kme1 Q T A R Kme3 S T G G K A P R K Q)",
    "binding score": 0.00259
  },
  {
    "binder": "SGRGKGGKGLGKGGAKRHR (S G R G K G G Kac G L G K G G A K R H R)",
    "binding score": 0.027
  },
  {
    "binder": "ARTKQTARKSTGGKAPRKQ (A Rme2a T Kme3 Q T A Rme2a Kme3 S T G G K A P R K Q)",
    "binding score": 0.00333
  },
  {
    "binder": "PDPAKSAPAPKKG[pS]KKAVT [H2B 1-19]",
    "binding score": 0.00148
  },
  {
    "binder": "PRKQLATKAARK(Me3)[pS]APATGG [H3 16-35]",
    "binding score": 0.00074
  }
]
